MEASURE: melting point (°C)
Give the quantity in °C, number only.

Some solved cases for reference:
compound="CCc1nc2cc(Cl)ccn2c1C(=O)NCc1ccc(NCc2ccc(OC(F)(F)F)cc2)cc1 [compound 215]" observed_result=169.6
compound="CCc1nc2cc(C)ccn2c1C(=O)NCc1ccc2ccccc2c1 [compound 95]" observed_result=192
compound="CCc1nc2ccc(F)cn2c1C(=O)NCc1ccc(Oc2ccc(OC(F)(F)F)cc2)cc1 [compound 225]" observed_result=133.4

Qu. What value of melting point has been reported for the following compound? CCc1nc2ccc(Cl)cn2c1C(=O)N1CCC(Oc2ccc(OC(F)(F)F)cc2)CC1 [compound 384]
Ans. 80.7

Qu. Try this compound next: CCc1nc2ccc(Cl)cn2c1C(=O)NCc1ccc(N2CCC(F)(F)CC2)cc1 [compound 235]
Ans. 194.2

Qu. Then what about the compound C=C1CCN(c2ccc(CNC(=O)c3c(CC)nc4cc(Cl)ccn34)cc2)CC1 [compound 218] ?
Ans. 168.3

Qu. Subsequent entry: CCc1nc2ccccn2c1C(=O)NCc1ccc(OCc2ccc(OC(F)(F)F)cc2)cc1 [compound 207]
Ans. 138.7

Qu. // query: CCc1nc2cc(Cl)ccn2c1C(=O)NCc1ccc(N2CCC(CO)CC2)cc1 [compound 212]
Ans. 179.8

Qu. Moving on to CCc1nc2ccc(Cl)cn2c1C(=O)NCc1ccc(N2CCC(COC)CC2)cc1 [compound 247]
Ans. 162.1

---

MEASURE: melting point (°C)
Please reply with the bare figure in °C and do not write the unit itself.

Qu. Name the reported melting point value associated with the molecule CCc1nc2cc(Cl)ccn2c1C(=O)NCc1ccc(N2CCC(c3ccccc3)CC2)cc1 [compound 209]
Ans. 164.5

Qu. Thanks! And Cc1nc2cccc(C)n2c1CNc1ccc(N2CCC(c3ccc(F)cc3)CC2)cc1 [compound 401] ?
Ans. 228.8

Qu. Then what about the molecule CCc1nc2cc(N3CCN(C)CC3)ccn2c1C(=O)NCc1ccc(N2CCOCC2)cc1 [compound 254] ?
Ans. 204.8

---

MEASURE: melting point

Qu. What melting point value was documented for this compound, CCc1nc2ccc(Cl)cn2c1C(=O)NCc1ccc(N2CCCC2)cc1 [compound 191] ?
Ans. 222 to 223 °C

Qu. # repeat for CCc1nc2c(F)cccn2c1C(=O)NCc1ccc(N2CCOCC2)cc1 [compound 242]
Ans. 197.3 °C

Qu. Let us now turn to CCc1nc2c[n+]([O-])ccn2c1C(=O)NCc1ccc(OC(F)(F)F)cc1 [compound 142]
Ans. 215 to 216 °C

Qu. Then CCc1nc2cc(Cl)ccn2c1C(=O)NCc1ccc(N2CCC(C(F)(F)F)CC2)cc1 [compound 234] ?
Ans. 209.4 °C

Qu. Same read-out for CCc1nc2cc(Cl)ccn2c1C(=O)NCc1ccc(C2CCOCC2)cc1 [compound 364] ?
Ans. > 156.6 °C (dec.)

Qu. Now consider CCc1nc2ccc(Cl)cn2c1C(=O)NCCc1ccc(OC)cc1 [compound 136] .
Ans. 129 to 130 °C

Qu. Try this compound too: CCc1nc2ccc(Cl)cn2c1C(=O)NCC1CCN(Cc2ccc(F)cc2)CC1 [compound 139]
Ans. 176 to 177 °C

Qu. Check CCc1nc2ccc(Cl)cn2c1CNc1ccc(-c2ccc(OC(F)(F)F)cc2)cc1 [compound 383] too.
Ans. 102 °C

Qu. Now consider CCCC(=O)NCc1ccc(N2CCN(c3ccc(CNC(=O)c4c(CC)nc5cc(Cl)ccn45)cc3)CC2)cc1 [compound 125] .
Ans. 238 to 239.2 °C

Qu. Check CCc1nc2ccc(Cl)cn2c1C(=O)NCc1ccc(Oc2ccc(Cl)cc2)cc1 [compound 160] too.
Ans. 159 to 160.7 °C

Qu. Further, for CCc1nc2cc(Cl)ccn2c1C(=O)NCc1ccc(N2CCC(COc3ccc(OC(F)(F)F)cc3)CC2)cc1 [compound 214] ?
Ans. 189.5 °C
